targetUnderTest: T1, FLAG-tagged ACE-2 target (human, UniProt Q9BYF1 18-740)
T1 construct: range 1-740; obtained from Human Genome Sciences, Inc; also called FLAG-ACE-2; tagged human ACE-2; not shown: FLAG tag
T1 sequence (Q9BYF1 18-740 limits assumed): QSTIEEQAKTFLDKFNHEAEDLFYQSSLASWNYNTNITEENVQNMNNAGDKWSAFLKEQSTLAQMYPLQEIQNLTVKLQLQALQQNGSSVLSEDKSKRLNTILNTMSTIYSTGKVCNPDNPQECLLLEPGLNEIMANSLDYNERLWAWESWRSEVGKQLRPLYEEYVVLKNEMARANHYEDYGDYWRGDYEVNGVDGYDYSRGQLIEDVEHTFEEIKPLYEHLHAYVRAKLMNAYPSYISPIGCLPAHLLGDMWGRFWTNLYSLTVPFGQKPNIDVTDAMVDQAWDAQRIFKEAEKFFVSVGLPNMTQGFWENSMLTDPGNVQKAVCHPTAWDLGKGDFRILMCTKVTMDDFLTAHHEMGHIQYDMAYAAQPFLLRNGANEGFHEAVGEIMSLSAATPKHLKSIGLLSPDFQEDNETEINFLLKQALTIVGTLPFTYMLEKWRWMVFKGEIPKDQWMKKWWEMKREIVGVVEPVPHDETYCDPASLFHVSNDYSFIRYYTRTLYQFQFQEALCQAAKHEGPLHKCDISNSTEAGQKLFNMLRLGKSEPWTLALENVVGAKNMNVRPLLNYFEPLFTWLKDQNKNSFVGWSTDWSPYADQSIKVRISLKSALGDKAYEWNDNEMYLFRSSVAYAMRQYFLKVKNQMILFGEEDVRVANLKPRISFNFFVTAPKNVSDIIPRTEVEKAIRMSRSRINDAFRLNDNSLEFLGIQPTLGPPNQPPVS
assayNotes: phage ELISA on FLAG-ACE-2
No end group written: not given here.
attributeMeasured: binding result

Some binders with recorded binding result:
DDDCGWIGFANFHLCLHG (not fully specified (N-terminus, C-terminus, bridges); cysteine pairing not given here) [ACE-2 binding polypeptide DDDCGWIGFANFHLCLHG]
binds
AYLCDWILFDSFEMCLAP (not fully specified (bridges); cysteine pairing not given here) [ACE-2 binding polypeptide AYLCDWILFDSFEMCLAP]
binds
SENCQALFCVDF (not fully specified (bridges); cysteine pairing not given here) [ACE-2 binding polypeptide SENCQALFCVDF]
binds
YEDCIGHALFCMTF (not fully specified (N-terminus, C-terminus, bridges); cysteine pairing not given here) [ACE-2 binding polypeptide YEDCIGHALFCMTF]
binds
WEDCLWIGMMCVEF (not fully specified (bridges); cysteine pairing not given here) [ACE-2 binding polypeptide WEDCLWIGMMCVEF]
binds
MDFCFDWEECWTN (not fully specified (bridges); cysteine pairing not given here) [ACE-2 binding polypeptide MDFCFDWEECWTN]
binds
DDYCFNISSYSYCFDF (not fully specified (bridges); cysteine pairing not given here) [ACE-2 binding polypeptide DDYCFNISSYSYCFDF]
binds
FFPCRALEKDSRCSFF (not fully specified (bridges); cysteine pairing not given here) [ACE-2 binding polypeptide FFPCRALEKDSRCSFF]
binds

Let's switch to this binder now.
(Q) Given the entry FHDCSWGPWGPWEICTRL (not fully specified (bridges); cysteine pairing not given here) [ACE-2 binding polypeptide FHDCSWGPWGPWEICTRL] , report its measured binding result.
(A) binds
